# method: folding stability dG unfold from trypsin proteolysis; higher = more stable
folding stability dG unfold vs 2 kcal/mol: at or above is t, below is f.

SAGGSAGGSAPKPKIEPVNNTITIDIPPKENVQIFFPNGKQEEFPVEPGKEIKIPPGMYLYPSAGGSAGGSA [r18_452_TrROS] = f

Check if folding stability dG unfold >= 2 kcal/mol (inclusive). Item: SAGGSAGGSAEYIVVNSDEQLKALKELGGVKEVERKENFVVVEFPDIPPELREKLLEVIKESAGGSAGGSAG [r3_398_TrMRF]
f

---

# method: folding stability dG unfold from trypsin proteolysis; higher = more stable
Assignment: determine reported folding stability dG unfold for the given sequences.
Give bare numbers, in kcal/mol.

Example results:
SAGGSAGGSAGPPDQNFLIKIKWQENGKKREHTIPIPAENLDEVLDELSPWPGLEVEIIPSAGGSAGGSAGG [r17_50_TrROS] = -0.408
SMEIKIEITYDKDTNYLVIKVTIKLKTKTVDKKTKKVTEKEEEITLTLVIKLKPLKPGQKLKLEIKLFPESA [r9_1058_TrROS_Hall] = 3.24
SAGGKPVRIRSSNGWPIEINPEDGTIKVEFPGYEVEFEVKEDGTIQFQIRNPKDGKPIMPMTLQIEKSAGGS [r16_760_TrROS] = 0.694

# evaluate next
Query: folding stability dG unfold; subject: SAGMKKVIELTIPVTGPEEVEELVAKLEEEEPAVPVERRPDPRLGAVRVVVEKKFPDSIVYITLTAAASAGG [r19_262_JUSTAS]
0.784

---

# method: folding stability dG unfold from trypsin proteolysis; higher = more stable
Mark 1 for reported folding stability dG unfold of 1 kcal/mol or greater; mark -1 for anything smaller.

Observe how each entry below is paired with its result.
SAGGSAGGSKIPPNQFIVRIEIKRRKPNGEKRKHEIIIPVGMPLDTLRDHAPPGYEITDIEVISAGGSAGGS [r12_597_TrROS] = 1
SAGEKVEITLVVKVEKDEDGRYRLTEEELREIAKALGLDFEVKSVEIERVPGYLVIRVTVDGKEYEFLSAGG [r19_398_TrROS_Hall] = 1
SAGGSAGGSAGMVYITKGKDGIWYEAEVDPTKPGAKVKVRHPLTGKEEEITPAEVVAVPPSAGGSAGGSAGG [r11_822_TrMRF] = -1
SAGGSAGGSGIEELKKAGFEIVRIERKEDGTLRLTVRNKETEETKTIEITLPEAEVELVEPPESAGGSAGGS [r12_166_TrROS_Hall] = 1
SAGGSAGGSAKKPKKFKITKISTVKNKNGKTYYKLVIEDEKTKKKYVFVFPKNKEEILKALSAGGSAGGSAG [r3_57_TrROS_Hall] = 1
SAGGEFEVEELPPGGLLLVTFRAPADLPLEIPLEFTSPDGSPVEVAEYEREPFGDYVLITVLVRVPDSAGGS [r16_499_TrMRF] = 1

Determine whether this sequence has folding stability dG unfold no lower than 1 kcal/mol: SAKIPAEEIAEEIAENFGFEPVEVDEIDPDEGKIIIRFPGWQIEVEVDPEDGEIEIEMEFYDPEDGKPFSAG [r14_270_TrROS]
-1

In plain terms: is recorded folding stability dG unfold at least 1 kcal/mol for SAGGSAGGSMELDEDGRLIVRIKVRDKETKEWKEIEIELPGLTEEEIRKLAEELGAEEIEILPSAGGSAGGS [r12_792_TrROS_Hall] ?
1

Does the sequence SMIEELSDEEKVALAKELAEEIKKAREGGKPEEIPELIKRLKEVLEAASPPVQEEVLALIKEIKIPPKELSA [r9_182_JUSTAS] have recorded folding stability dG unfold that is 1 kcal/mol or more?
1

API: above_or_equal(metric=folding stability dG unfold, cutoff=1 kcal/mol) for item SAGMTLTVVLPVPEEMTEEEAAEILRAYVDAVVAELLAGDAVAVPKEIVVDKETGTAVAKVELFIPPDLSAG [r5_146_TrMRF]
1

Check the entry SAGGKKIEIEIVFKEGEKAPSAEEIAKKLLEEIPNIKITSIEIVDVEYDEETGEKYVVVKITIEVEPPSAGG [r13_10_TrROS_Hall] : does folding stability dG unfold equal or exceed 1 kcal/mol?
1

Hi team, for SAGMISPEEIAKRLKAGEPVEIYLPDPAEKEALLAELQKLLGLSEEELKEIFAKMKFTEIPATDPRLLASAG [r5_368_JUSTAS] , is the recorded folding stability dG unfold at or above 1 kcal/mol?
1

Kindly determine if folding stability dG unfold recorded for SAGLKVESQTYDPATGTATVTPPLEGVPPDYTITVTDTATGKKTTLPPDGDVTLSNPTGPVTVTLTRPASAG [r14_134_JUSTAS] is above or exactly 1 kcal/mol.
-1

Determine whether this sequence has folding stability dG unfold no lower than 1 kcal/mol: SAGGLKIPVGSAEDALKAFEAIEEPVLVRTKDRKFVRELKLEDIKELVEKGVEFEFVLPSELPEEERKESAG [r5_677_TrMRF]
-1

Hi, just wondering whether SAGGSAGGSASVKVEEKPTEIVITTKSPSPVITVETIPLSPDGVPVGKKTTTISLPPKDIILSAGGSAGGSA [r18_300_JUSTAS] shows folding stability dG unfold of 1 kcal/mol or higher.
-1

Identify whether the reported folding stability dG unfold of the following sequence is 1 kcal/mol or greater: SAGGSAGGSAGNLKVVDISIWRTDDMRYIMFKLEGDGLTIMIWVPPKEPGKIQIMIFPLDSAGGSAGGSAGG [r11_1046_TrROS]
1

Tell me whether folding stability dG unfold is at least 1 kcal/mol here: SMYDIVITVPSPEDVKALEEAFKELGVEEIEVERLPEERYRIVIKTKGSVEEIVEAIRKIAEENGLEIEPSA [r9_1003_TrMRF]
1

Check the entry SAGGSAGGSAGMVLLKSEEEAEELRKPNVSLSVTPVPPVEVSEGDPNALAYEVELKPPLESAGGSAGGSAGG [r11_168_JUSTAS] : does folding stability dG unfold equal or exceed 1 kcal/mol?
1

---

# method: folding stability dG unfold (combined trypsin and chymotrypsin); higher = more stable
For each record, write down the corresponding folding stability dG unfold.
Numbers only, in kJ/mol.

Observe how each entry below is paired with its result.
SWKIKISIERTGDWITVKIWYDNPSELRNAIEMIAEKLGMKVEIDDVSWKRDPNGWYEATITVRIKPGMPSA [r9_102_TrROS] = 14.3
SAGGSAPPDTPLATIEFTLTPPDGSTTPTTITVPPSVVEEAAAAQKAAFEAAGWATTVTVATTTPLSAGGSA [r2_274_JUSTAS] = 2.2
SMVELKITVKTPEELKKLEEAFKELGVEEVTIERKEDGTVTITVTFKESEEELEERVREALEELGFEVEPSA [r9_1003_TrROS_Hall] = 13.3
SAGMTVTFTLDFPANGGPITITVYHGDKAEEITVPKNETVTITVDLDPNDGLTIRAHYPDGSYVEFPIGSAG [r5_187_TrMRF] = 18.8

Need folding stability dG unfold for each of these sequences.
1. SAGGSAGGSAGGMKTLTVTTESLTKEEIIEEIKAMGYPNAKVTVTPSPENPDKYIVNVIESAGGSAGGSAGG [r7_988_JUSTAS]
2. SAGGSMKPSKVTEVTHPDGTRFTVTEYPEVPLLTLTIERPETGTTTTVKTKSREEAEKVLAELVASSAGGSA [r2_70_JUSTAS]
3. SAGGSAGGSAMKIEIEVDPKTNVIYIRVNGLVYRFTKSEDGYIYIEVYDKNGKLIETFRLKLSAGGSAGGSA [r18_333_TrROS_Hall]

1: 1.69; 2: 2.49; 3: 18.4

---

# method: folding stability dG unfold from chymotrypsin proteolysis; higher = more stable
# binarize folding stability dG unfold: threshold 8 kJ/mol inclusive, high side t, low side f

Examples from the recorded data:
GSAGVMFGSREDIEALAAALGPDVAPTDVTYDPSGYYYYTIPLPDGTPTSLTIPPDKYSPEEVAALARRLTS [r1_279_JUSTAS] = f
SASMTYTVTVTVSVKNPDGTPIGTIPITRTMNLDEAKVIVEKEIKKTVDELFPGKPANVTVDTTVTPLPSAG [r14_570_JUSTAS] = f
SIIVEPLPDNTFIAYFPETDSVIEIRVDPSTGKAHAIAELPGEPVEATFDPRKGVLVIELPNGRIVLPLLSA [r9_541_TrMRF] = f
SAGGSAGGEIEILPGAKIVRVERRKDGSLLIVVEVDGKLYLFRFKDGKVEVIELPEGASLEELLSAGGSAGG [r6_680_TrROS_Hall] = t
SAGGSAGGKITPEMEKLKKEIADAIKKAFPNKDLKIEVIKIEKTKDGSVIIDIKIGDKIIRIKASAGGSAGG [r6_494_TrMRF] = f
SAGGSAGGSSMLTITKTYTLPPEEIKKIEGKPGVLKVEPFVTPEGKLVVKVEIRLEIGPEKLLLSAGGSAGG [r6_155_JUSTAS] = f
SAGGSAGGSAMTAREIADELVKEGKEVKVTVRRPGEEKEITVTKEGEPLPPGAEIVKIEEVSAGGSAGGSAG [r3_421_TrROS_Hall] = f
SAEVEVLPFEFELPNGLRVEVHLVRLPDGTVVAPVLLVEYDPVTGEPRLSRAVAVFDPSTGKVTVLPLDSAG [r14_324_TrMRF] = t

Is folding stability dG unfold at least 8 kJ/mol? Consider SAGGSAGGGFILEVDPEKGVAVAYFDPSTGEVVVAVPEGPVYRFASAEEVVAATGKPVVIVPATSAGGSAGG [r6_752_TrMRF]
f

Identify whether the reported folding stability dG unfold of the following sequence is 8 kJ/mol or greater: SAGNITIEWEEYEDYRVIKITIPYKSPQQAPEEIESIIRKLGFPPNMKIEDIEVDPEEGHVEITIYIKSAGG [r19_186_TrROS]
t

Numbers sourced from the supplement of paper PMC12764529.
